Tested on: CD69 expression on B cells in human whole blood
Test: Whole Blood Assay of BCR-Stimulated CD69 Expression on B Cells
Format: cell-based
Settings: Homo sapiens, B-cell

molecule: Cc1c(-c2c(F)cc(C(N)=O)c3[nH]c4cc(C(C)(C)O)ccc4c23)cccc1-n1c(=O)[nH]c2c(F)cc(F)cc2c1=O (single isomer, unassigned) [Example 73]
experimental-target: CD69 expression on B cells in human whole blood
IC50 (nM): 21
